tested-target: T1, lymphotoxin beta receptor (LT-β-R) (human, UniProt P36941 31-435)
T1 construct: whole, on cells; also called LT-β receptor
T1 sequence (P36941 31-435): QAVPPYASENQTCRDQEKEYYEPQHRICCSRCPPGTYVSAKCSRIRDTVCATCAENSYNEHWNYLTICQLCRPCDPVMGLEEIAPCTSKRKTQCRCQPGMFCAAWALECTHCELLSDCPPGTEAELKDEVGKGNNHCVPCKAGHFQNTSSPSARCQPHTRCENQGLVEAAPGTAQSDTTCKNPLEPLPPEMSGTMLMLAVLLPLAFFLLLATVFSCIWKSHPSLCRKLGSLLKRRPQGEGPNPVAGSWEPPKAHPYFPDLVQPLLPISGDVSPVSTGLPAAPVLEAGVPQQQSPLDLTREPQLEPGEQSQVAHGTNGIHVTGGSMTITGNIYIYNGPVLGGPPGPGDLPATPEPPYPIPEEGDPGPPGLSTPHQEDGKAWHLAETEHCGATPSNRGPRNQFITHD
assay-protocol: FACS staining of HT-29 cells with conditioned medium, PE anti-human IgG
Reported Relative MFI values for the following binders.

- binder: "L2/H3 (VL#2 with VH#3) (antibody, human IgG1, V domains shown, Mix and match co-transfection; Human IgG1 / kappa constant regions; also called pAND072/pAND077) VH: EVQLVESGGGLVKPGGSLRLSCAASGFTFSDYYMYWVRQAPGKGLEWVATISDGGSYTYYPDSVKGRFTISRDNAKNSLYLQMSSLRAEDTAVYYCAREENGNFYYFDYWGQGTTVTVSS VL: DIQMTQSPSSLSASVGDRVTITCKAGQDIKSYLSWYQQKPWKAPKILIYYATRLADGVPSRFSGSGSGTDYTLTISSLQPEDFATYYCLQHGESPWTFGGGTKLEIK"
  Relative MFI: "0.42 MFI normalized to chCBE11"
- binder: "huCBE11 #1 (VL#1 with VH#1) (antibody, human IgG1, V domains shown, also called pAND068/pAND069) VH: EVQLVESGGGLVKPGGSLRLSCAASGFTFSDYYMYWFRQTPGKGLEWVATISDGGSYTYYPDSVKGRFTISRDNAKNSLYLQMSSLRAEDTAMYYCVREENGNFYYFDYWGQGTTVTVSS VL: DIKMTQSPSSLSASVGDRVTITCKAGQDIKSYLSWYQQKPWKAPKILIYYATRLADGVPSRFSGSGSGQDYTLTISSLQPEDFATYYCLQHGESPWTFGGGTKLEIK"
  Relative MFI: "1 MFI normalized to chCBE11"
- binder: "chimeric CBE11 (chCBE11) (antibody, V domains shown, the latter is followed; also called pEAG982/pEAG983) VH: EVQLVESGGGLVKPGGSLKLSCAASGFTFSDYYMYWFRQTPEKRLEWVATISDGGSYTYYPDSVKGRFTISRDNAKNNLYLQMSSLKSEDTAMYYCVREENGNFYYFDYWGQGTTVTVSS VL: DIKMTQSPSSMYASLGERVTITCKAGQDIKSYLSWYQQKPWKSPKILIYYATRLADGVPSRFSGSGSGQDYSLTISSLESDDTATYYCLQHGESPWTFGGGTKLEIK"
  Relative MFI: "1 MFI normalized to chCBE11"
- binder: "L2/V93A H2 (VL#2 with the V93A variant of VH#2) (antibody, V domains shown, Human IgG1 / kappa constant regions; also called pAND072/pAND090) VH: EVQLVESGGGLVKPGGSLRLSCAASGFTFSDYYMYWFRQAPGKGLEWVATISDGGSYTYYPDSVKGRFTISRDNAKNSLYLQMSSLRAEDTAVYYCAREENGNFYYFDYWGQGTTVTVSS VL: DIQMTQSPSSLSASVGDRVTITCKAGQDIKSYLSWYQQKPWKAPKILIYYATRLADGVPSRFSGSGSGTDYTLTISSLQPEDFATYYCLQHGESPWTFGGGTKLEIK"
  Relative MFI: "0.75 MFI normalized to chCBE11"
- binder: "huCBE11 #2 (VL#2 with VH#2) (antibody, human IgG1, V domains shown, also called huCBE#2; pAND072/pAND073) VH: EVQLVESGGGLVKPGGSLRLSCAASGFTFSDYYMYWFRQAPGKGLEWVATISDGGSYTYYPDSVKGRFTISRDNAKNSLYLQMSSLRAEDTAVYYCVREENGNFYYFDYWGQGTTVTVSS VL: DIQMTQSPSSLSASVGDRVTITCKAGQDIKSYLSWYQQKPWKAPKILIYYATRLADGVPSRFSGSGSGTDYTLTISSLQPEDFATYYCLQHGESPWTFGGGTKLEIK"
  Relative MFI: "1 MFI normalized to chCBE11"
- binder: "huCBE11 #3 (VL#3 with VH#3) (antibody, human IgG1, V domains shown, also called pAND076/pAND077) VH: EVQLVESGGGLVKPGGSLRLSCAASGFTFSDYYMYWVRQAPGKGLEWVATISDGGSYTYYPDSVKGRFTISRDNAKNSLYLQMSSLRAEDTAVYYCAREENGNFYYFDYWGQGTTVTVSS VL: DIQMTQSPSSLSASVGDRVTITCKAGQDIKSYLSWYQQKPGKAPKLLIYYATRLADGVPSRFSGSGSGTDYTLTISSLQPEDFATYYCLQHGESPWTFGGGTKLEIK"
  Relative MFI: "0.62 MFI normalized to chCBE11"

Which Relative MFI value belongs to huCBE11 #4 (VL#3 with VH#4) (antibody, human IgG1, V domains shown, Full mature chains with human IgG1 and kappa constant domains; also called hCBE11; pAND076/pAND090) VH: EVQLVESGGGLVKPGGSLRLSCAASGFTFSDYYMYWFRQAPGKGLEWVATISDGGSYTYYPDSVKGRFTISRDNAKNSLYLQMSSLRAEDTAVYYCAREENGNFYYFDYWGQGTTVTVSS VL: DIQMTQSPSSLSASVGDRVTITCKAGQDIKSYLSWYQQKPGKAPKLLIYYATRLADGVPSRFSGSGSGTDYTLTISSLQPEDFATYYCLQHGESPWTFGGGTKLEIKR ?
1 MFI normalized to chCBE11

# iterate: L3/H2 (VL#3 with VH#2) (antibody, human IgG1, V domains shown, Mix and match co-transfection; Human IgG1 / kappa constant regions; also called pAND076/pAND073) VH: EVQLVESGGGLVKPGGSLRLSCAASGFTFSDYYMYWFRQAPGKGLEWVATISDGGSYTYYPDSVKGRFTISRDNAKNSLYLQMSSLRAEDTAVYYCVREENGNFYYFDYWGQGTTVTVSS VL: DIQMTQSPSSLSASVGDRVTITCKAGQDIKSYLSWYQQKPGKAPKLLIYYATRLADGVPSRFSGSGSGTDYTLTISSLQPEDFATYYCLQHGESPWTFGGGTKLEIK
1 MFI normalized to chCBE11
